Source of measurements: paper PMC8458281

I'd be grateful if you could share measured pIC50 for these entries.
- tested target: CXCR4 E288D (human, UniProt P61073-1 1-352, E288 to Asp)
- Sequence (P61073 whole entry E288D): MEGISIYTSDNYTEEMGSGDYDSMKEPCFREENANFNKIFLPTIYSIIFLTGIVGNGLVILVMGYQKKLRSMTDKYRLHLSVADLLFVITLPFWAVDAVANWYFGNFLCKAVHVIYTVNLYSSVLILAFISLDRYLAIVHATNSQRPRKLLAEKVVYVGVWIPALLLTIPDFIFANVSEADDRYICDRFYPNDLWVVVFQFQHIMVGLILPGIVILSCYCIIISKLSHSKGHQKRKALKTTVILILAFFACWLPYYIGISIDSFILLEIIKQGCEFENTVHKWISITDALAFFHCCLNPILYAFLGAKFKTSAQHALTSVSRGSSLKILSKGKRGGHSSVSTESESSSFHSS
- procedure text: FACS
Keep it numeric: pIC50 is minus log10 of the concentration in mol/L.

Input IVRWSKKVPCVS (also called EPI-X4 WSC02; source: synthetic peptide (Fmoc solid-phase synthesis, HPLC-purified)) [WSC02] . Output pIC50: 4.08

Input ILRWSRKLPCVS (source: synthetic peptide (Fmoc solid-phase synthesis, HPLC-purified)) [EPI-X4 JM#21] . Output pIC50: 4.85
